// provenance: PubChem BioAssay (NCATS)

max response values by entry
Assay: qHTS Assay for Lipid Storage Modulators (AID 1519)
Conditions: Drosophila S3 cells, BODIPY lipid droplet/cell ratio, laser cytometry; measured here: cell count channel max response; cells loaded with oleic acid
Protocol: NIH Molecular Libraries Probe Production Centers Network [MLPCN] NIH Chemical Genomics Center [NCGC] Assay Submitter (PI): Beller, Mathias; Max-Planck-Institut fur Biophysikalische Chemie […] We dispensed 4 uL of cells at 1.25 x 10^6 cells/mL into LoBase Aurora COC 1,536-well plates (black walled, clear bottom) with a bottle-valve solenoid-based dispenser (Aurora) to obtain 5,000 cells/well. […] The ratio of the total intensity in PMT channel 1 over total intensity of channel 3 was also calculated. […]
Results filed as inconclusive are left out.
Readout: max response (%)

• N#Cc1ccc(CN2CC[C@@]3(CCCN(C(=O)c4cnccn4)C3)C2)cc1 = 12.2
• FC(F)(F)c1cc(CN2CCC3(CCNCC3)CC2)cc(C(F)(F)F)c1 = -8.05
• CC(C)CN1CC2(CCN(C(=O)c3cnccn3)CC2)C1 = 13.2
• O=C(c1ccncc1)N1CCC2(CCCN(c3ccccc3)C2)CC1 = 7.52
• COCC(=O)N1CCC2(CC1)CN(c1ccccc1)C2 = 15
• Cn1cccc1C(=O)N1CCC2(CCCN(C(=O)Nc3cccc(F)c3)C2)CC1 = -2.38
• COc1ccccc1CN1CCC2(CC1)CCN(C(=O)c1ccco1)CC2 = 1.79
• O=C(c1ccncc1)N1CCC[C@@]2(CCN(C(c3ccccc3)c3ccccc3)C2)C1 = -3.62
• O=c1c(-c2cc(F)cc(F)c2)nc2cncnc2n1Cc1ccc(F)cc1 = -5.87
• CCn1cc(C(=O)O)c(=O)c2cc(F)c(N3CCN[C@@H](C)C3)c(F)c21 = -2.23
• CC(=O)N1CCC2(CC1)CN(Cc1ccc(C#N)cc1)C2 = -0.767
• CN1CCCC2(CCN(C(=O)c3cc(C(F)(F)F)cc(C(F)(F)F)c3)CC2)C1 = 17.7
• Cn1cccc1C(=O)N1CCC2(CC1)CN(Cc1ccc(C#N)cc1)C2 = 20.5
• COc1ccccc1CNc1ncnc2ccc(-c3c(C)noc3C)cc12 = -3.01
• COc1ccc(C(=O)N2CCC[C@@]3(CCN(c4ccncc4)C3)C2)cc1 = -12
• O=C(c1cc(C(F)(F)F)cc(C(F)(F)F)c1)N1CCC2(CCN(Cc3ccncc3)CC2)CC1 = 7.35
• COc1ccccc1CNc1ncnc2ccc(-c3cccnc3)cc12 = -9.63
• O=C(c1ccco1)N1CCC2(CCN(Cc3nccs3)CC2)CC1 = 8.57
• COc1ccc(C(=O)N2CCC3(CCN(Cc4ccccc4OC)CC3)CC2)cc1 = 10.3
• COC(=O)N1CCC2(CCN(Cc3ccc(C#N)cc3)CC2)CC1 = 5.74
• CCCN[C@@H](C)C(=O)Nc1ccccc1C = 11.7
• OCCN1CCN(CC/C=C2\c3ccccc3Sc3ccc(C(F)(F)F)cc32)CC1 = -13.1
• CO[C@]1(NC(=O)CSCC#N)C(=O)N2C(C(=O)O)=C(CSc3nnnn3C)CS[C@H]21 = -7.44
• CN1CCN(c2nc(-c3cccc(NS(C)(=O)=O)c3)nc3ccccc23)CC1 = 7.68
• CC(C)N1CCN(c2ccc(OC[C@@H]3CO[C@@](Cn4cncn4)(c4ccc(Cl)cc4Cl)O3)cc2)CC1 = -0.321
• CCN(CC)CCC[C@H](C)Nc1ccnc2cc(Cl)ccc12 = -15.4
• Cn1cc(C(F)(F)F)nc1-c1ccc(OC[C@@H](O)CNCCOc2ccc(O)c(C(N)=O)c2)cc1 = -4.45
• COc1ccc([C@H]2Sc3ccccc3N(CCN(C)C)C(=O)[C@H]2OC(C)=O)cc1 = 7.03
• FC(F)(F)c1ccccc1-c1nccc(NCc2ccccc2)n1 = 0.814
• CN1CCN(c2ncc3ncc(=O)n(Cc4cccs4)c3n2)CC1 = 26.8
• Cn1cccc1C(=O)N1CCC2(CCN(Cc3ccccc3)CC2)CC1 = 16.4
• C#C[C@]1(OC(C)=O)CCC2C3CCC4=CC(=O)CCC4C3CC[C@]21C (stereo partly drawn) = -10.7
• O=c1cnc2cnc(N3CCOCC3)nc2n1C[C@H]1CCCO1 = 13.3
• CC(C)NC(=O)N1CC[C@@]2(CCCN(C(=O)c3ccncc3)C2)C1 = -1.86
• COC(=O)c1c(C)c2c(c(C)c1O)OC(=O)c1c(C)c(Cl)c(O)c(Cl)c1O2 = -4.72
• O=C(c1csnn1)N1CCC2(CCN(Cc3ccccc3)CC2)CC1 = 4.52
• COCCn1c(=O)c(CCc2ccccc2)nc2cnc(Oc3ccc(OC)cc3)nc21 = 5.1
• COc1ccc(C(=O)N2CCC[C@@]3(CCN(Cc4ccncc4)C3)C2)cc1 = 16.4
• CN1CCN(c2ncc3nc(-c4ccccc4)c(=O)n(C)c3n2)CC1 = 14.1
• COCC(=O)N1CCC2(CC1)CN(Cc1nccs1)C2 = 4.27
• O=C(O)/C=C\c1ccc(O)c(O)c1 = -1.26
• COCC(=O)N1CCC[C@@]2(CCN(c3ccncc3)C2)C1 = -0.218
• CCN[C@@H]1C[C@H](C)S(=O)(=O)c2sc(S(N)(=O)=O)cc21 = -1.77
